# target-under-test: FP receptor (Homo sapiens (Human))
# Sequence (P43088 whole entry): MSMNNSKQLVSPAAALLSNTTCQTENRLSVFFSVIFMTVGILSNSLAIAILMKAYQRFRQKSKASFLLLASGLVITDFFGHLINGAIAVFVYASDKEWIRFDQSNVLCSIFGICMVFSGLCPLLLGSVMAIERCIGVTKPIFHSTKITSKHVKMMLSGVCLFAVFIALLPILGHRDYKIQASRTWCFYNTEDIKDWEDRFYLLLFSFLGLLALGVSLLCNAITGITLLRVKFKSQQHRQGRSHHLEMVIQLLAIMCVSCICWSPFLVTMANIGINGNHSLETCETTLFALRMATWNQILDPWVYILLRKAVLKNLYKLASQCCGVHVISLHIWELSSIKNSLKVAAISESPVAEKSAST
# test: In vitro test of inhibition of human FP receptor activity (PGF2α-induced calcium flux in FP-expressing CHEM1 cells)
# condition-details: PGF2α-induced (2 nM) calcium flux in FP-expressing CHEM1 cells; some as mean values from multiple determinations
pIC50: −log10 of the molar value.
Property: pIC50; scope: individual molecules

molecule: Cc1c(-c2ccccc2)nc2ccc(Br)cc2c1C(=O)NCC(CCC(=O)O)c1c(Cl)ccc(Cl)c1Cl (single isomer, unassigned; (-)) [Example 236]
pIC50: 8.70

molecule: COc1ccccc1C(O)(CNC(=O)c1c(C)c(-c2ccccc2)nc2ccc(Br)cc12)C(=O)O (racemic) [Example 53]
pIC50: 6.74

molecule: Cc1c(-c2ccccc2)nc2ccc(Br)cc2c1C(=O)NCC(C)(CCC(=O)O)c1ccccc1Cl (racemic) [Example 154]
pIC50: 7.82

molecule: Cc1cccc(C(CNC(=O)c2c(C)c(-c3ccccc3)nc3ccc(Br)cc23)C(=O)O)c1 (single isomer, unassigned; (-)) [Example 51]
pIC50: 7.38

molecule: Cc1c(-c2ccccc2)nc2ccc(Br)cc2c1C(=O)NCC(c1ccccc1Cl)N(C)CC(=O)O (single isomer, unassigned; (-)) [Example 188]
pIC50: 7.27

molecule: COc1c(F)cc(F)cc1C(C)(CNC(=O)c1c(C)c(-c2ccccc2)nc2ccc(Br)cc12)CC(=O)O (single isomer, unassigned; (+)) [Example 136]
pIC50: 7.89

molecule: Cc1c(-c2ccccc2)nc2ccc(Br)cc2c1C(=O)NCC(C)(C(=O)O)c1ncccc1Cl (racemic) [Example 26]
pIC50: 7.36

molecule: Cc1c(-c2ccccc2)nc2ccc(Br)cc2c1C(=O)NCC(CCC(=O)O)c1ccccc1C(F)(F)F (racemic) [Example 203]
pIC50: 8.12

molecule: COc1cccc(F)c1C(CNC(=O)c1c(C)c(-c2ccccc2)nc2ccc(Br)cc12)C(=O)O (racemic) [Example 56]
pIC50: 7.68

molecule: COc1ccccc1C(CCC(=O)O)CNC(=O)c1c(C)c(-c2ccccc2)nc2ccc(Br)cc12 (single isomer, unassigned; (-)) [Example 167]
pIC50: 7.59

molecule: COc1ccccc1C(C)(CNC(=O)c1c(C)c(-c2ccccc2)nc2ccc(Br)cc12)CC(=O)O (single isomer, unassigned; (-)) [Example 122]
pIC50: 6.34

molecule: Cc1c(-c2ccccc2)nc2ccc(Br)cc2c1C(=O)NCC(C(=O)O)c1ccccc1 (racemic) [Example 1]
pIC50: 6.89

molecule: COc1c(F)cc(F)cc1C(C)(CNC(=O)c1c(C)c(-c2ccccc2)nc2ccc(Br)cc12)CC(=O)O (single isomer, unassigned; (-)) [Example 137]
pIC50: 6.36

---

# target-under-test: FP receptor (Homo sapiens (Human))
# test: In vitro test of inhibition of human FP receptor activity (PGF2α-induced calcium flux in FP-expressing CHEM1 cells)
# condition-details: PGF2α-induced (2 nM) calcium flux in FP-expressing CHEM1 cells; some as mean values from multiple determinations
# Description: Table 1 below lists the IC50 values from this assay for individual working examples of the invention (some as mean values from multiple independent individual determinations): […]

molecule: COc1ccccc1C(CNC(=O)c1c(C)c(-c2ccccc2)nc2ccc(Br)cc12)C(=O)O (racemic) [Example 7]
target-under-test: FP receptor (Homo sapiens (Human))
unit-tag: nM
value-prefix: =
IC50: 24

molecule: Cc1c(-c2ccccc2)nc2ccc(Br)cc2c1C(=O)NCC(CCC(=O)O)c1c(F)c(F)cc(F)c1F (single isomer, unassigned; (+)) [Example 230]
target-under-test: FP receptor (Homo sapiens (Human))
unit-tag: nM
value-prefix: =
IC50: 49

molecule: Cc1c(-c2ccccc2)nc2ccc(Br)cc2c1C(=O)NCC(CC(=O)O)c1ccccc1C(F)(F)F (single isomer, unassigned; (-)) [Example 107]
target-under-test: FP receptor (Homo sapiens (Human))
unit-tag: nM
value-prefix: =
IC50: 51

molecule: Cc1c(-c2ccccc2)nc2ccc(Br)cc2c1C(=O)NC(C)C(CC(=O)O)c1ccccc1Cl (single isomer, unassigned; (+)) [Example 147]
target-under-test: FP receptor (Homo sapiens (Human))
unit-tag: nM
value-prefix: >
IC50: 1000

molecule: Cc1c(-c2ccccc2)nc2ccc(Br)cc2c1C(=O)NCC(SCC(=O)O)c1ccccc1Cl (racemic) [Example 194]
target-under-test: FP receptor (Homo sapiens (Human))
unit-tag: nM
value-prefix: =
IC50: 7.9

molecule: Cc1c(-c2ccccc2)nc2ccc(Br)cc2c1C(=O)NCC(CCC(=O)O)c1c(F)cccc1C(F)(F)F (racemic) [Example 225]
target-under-test: FP receptor (Homo sapiens (Human))
unit-tag: nM
value-prefix: =
IC50: 4.7
